- TEST DESCRIPTION: Mean cumulative urine excretion level in patient with mild renal impairment at 600 mg, po administered as single dose
- Assay type: ADME, organism-based
- CONDITION INFO: human, read-out: Activity
RECORDED ENDPOINT: dose excreted (%)

structure=Cc1cn([C@@H]2C[C@@H](O)[C@H](CO)O2)c(=O)[nH]c1=O value_measured=23.6

###

- Tested on: HepG2
- TEST DESCRIPTION: Cmax for Telbivudine triphosphate in HepG2 cells after 10 uM Telbivudine treatment
- Type: ADME, cell-based
- CONDITION INFO: human, hepg2, 10 µM; read-out: Cmax_triphosphate
RECORDED ENDPOINT: Cmax (µM)

molecule="Cc1cn([C@@H]2C[C@@H](O)[C@H](CO)O2)c(=O)[nH]c1=O [TELBIVUDINE]" assayed_target=HepG2 value_measured=30

###

- TEST DESCRIPTION: Cmax in patient with severe renal impairment at 200 mg, po administered as single dose
- Type: ADME, organism-based
- Parameters: dose 200 mg, route oral
- CONDITION INFO: human, in vivo
RECORDED ENDPOINT: Cmax (ng/mL)

structure=Cc1cn([C@@H]2C[C@@H](O)[C@H](CO)O2)c(=O)[nH]c1=O recorded_endpoint=Cmax value_measured=1600

###

- TEST DESCRIPTION: Elimination half life in patient with severe renal impairment at 200 mg, po administered as single dose
- Assay type: ADME, organism-based
- CONDITION INFO: human, in vivo, read-out: beta t1/2 (converted)
RECORDED ENDPOINT: half-life

structure=Cc1cn([C@@H]2C[C@@H](O)[C@H](CO)O2)c(=O)[nH]c1=O value_measured="32.9 h"

###

- TEST DESCRIPTION: Cmax in patient with moderate renal impairment at 400 mg, po administered as single dose
- Type: ADME, organism-based
- Set-up: dose 400 mg, route oral
- CONDITION INFO: human, in vivo
RECORDED ENDPOINT: Cmax (ng/mL)

structure=Cc1cn([C@@H]2C[C@@H](O)[C@H](CO)O2)c(=O)[nH]c1=O recorded_endpoint=Cmax value_measured=2800

###

- TEST DESCRIPTION: AUC (0 to t) in patient with severe renal impairment at 200 mg, po administered as single dose
- Type: ADME, organism-based
- CONDITION INFO: human, plasma
RECORDED ENDPOINT: AUC(0-t) (ng·h/mL)

structure=Cc1cn([C@@H]2C[C@@H](O)[C@H](CO)O2)c(=O)[nH]c1=O reading_unit=ng·h/mL value_measured=25300

###

- TEST DESCRIPTION: Renal clearance in human with normal renal function at 600 mg, po administered as single dose
- Assay type: ADME, organism-based, Kidney
- CONDITION INFO: in vivo, read-out: CL_renal (converted)
RECORDED ENDPOINT: CL renal (mL/min)

structure=Cc1cn([C@@H]2C[C@@H](O)[C@H](CO)O2)c(=O)[nH]c1=O reading_unit=mL/min value_measured=127

###

- TEST DESCRIPTION: AUC (0 to infinity) in patient with end-stage renal disease at 200 mg, po administered as two single doses 2 hrs before dialysis separated by 1 week washout period
- Type: ADME, organism-based
- Set-up: dose 200 mg, route oral, time infinity
- CONDITION INFO: human, plasma
RECORDED ENDPOINT: AUC(0-inf) (ng·h/mL)

compound="Cc1cn([C@@H]2C[C@@H](O)[C@H](CO)O2)c(=O)[nH]c1=O [TELBIVUDINE]" recorded_endpoint=AUC(0-inf) value_measured=43400
